We begin with a simple list: items and their reported CC50 at 144 h.
Test summary: Cytotoxicity in PHH natural infection assay (Cell Counting Kit-8)
Format: cell-based
Condition details: HBV-infected primary human hepatocytes, CCK8

CS(=O)(=O)c1cc(C(=O)NC2CC3(C2)CC(c2nc4cc(Cl)ccc4o2)C3)c(Cl)cn1 (stereo not shown) | > 10 µM
CC(=O)NS(=O)(=O)c1cc(C(=O)NC2CC3(C2)CC(c2nc4cc(Cl)ccc4o2)C3)ccn1 (stereo not shown) | > 10 µM
CS(=N)(=O)c1cc(C(=O)NC2CC3(C2)CC(c2nc4cc(Cl)ccc4o2)C3)ccn1 (stereo not shown) | > 100 µM
O=C(NC1CC2(C1)CC(c1nc3cc(Cl)ccc3o1)C2)C1CN(Cc2ccccc2)S(=O)(=O)C1 (stereo not shown) | > 10 µM
O=C(CC1CCCS1(=O)=O)NC1CC2(C1)CC(c1nc3cc(Cl)ccc3o1)C2 (stereo not shown) | > 100 µM

Briefly, CC50 at 144 h measured for O=C(NC1CC2(C1)CC(c1nc3cc(Cl)ccc3o1)C2)c1ccnc(N2CCCCC2)c1 (stereo not shown) : > 10 µM

Briefly, CC50 at 144 h measured for CS(=O)(=O)c1cc(C(=O)NC2CC3(C2)CC(c2nc4cc(Cl)cnc4o2)C3)ccn1 (stereo not shown) : > 10 µM

Briefly, CC50 at 144 h measured for O=C(NC1CC2(C1)CC(c1nc3cc(Cl)ccc3o1)C2)C1CC(=O)N(c2ccccc2)C1 (stereo not shown) : > 100 µM

Briefly, CC50 at 144 h measured for [H][C@]1(NC(=O)C2CCS(=O)(=O)CC2)C[C@@]2(C1)C[C@]([H])(c1nc3cc(Cl)ccc3o1)C2 (single isomer, unassigned) [Example 82b] : > 100 µM

Briefly, CC50 at 144 h measured for CC1(C(=O)NC2CC3(C2)CC(c2nc4cc(Cl)ccc4o2)C3)CCS(=O)(=O)CC1 (stereo not shown) : > 100 µM

Briefly, CC50 at 144 h measured for Cc1cc(C(=O)NC2CC3(C2)CC(c2nc4cc(Cl)ccc4o2)C3)ccn1 (stereo not shown) : > 10 µM

Briefly, CC50 at 144 h measured for CS(=O)(=O)c1cc(C(=O)NC2CC3(C2)CC(c2nc4cc(Cl)ccc4o2)C3)ccn1 (stereo not shown) : 94.1 µM

Briefly, CC50 at 144 h measured for O=C(NC1CC2(C1)CC(c1nc3cc(Cl)ccc3o1)C2)c1ccnc(N2CCOCC2)c1 (stereo not shown) : > 10 µM

Briefly, CC50 at 144 h measured for N=C(NO)c1cc(C(=O)NC2CC3(C2)CC(c2nc4cc(Cl)ccc4o2)C3)ccn1 (stereo not shown) : > 10 µM

Briefly, CC50 at 144 h measured for CN(C)C(=O)c1cc(C(=O)NC2CC3(C2)CC(c2nc4cc(Cl)ccc4o2)C3)ccn1 (stereo not shown) : > 10 µM

Briefly, CC50 at 144 h measured for O=C(NC1CC2(C1)CC(c1nc3cc(Cl)ccc3o1)C2)C1CCN(C(=O)C2CC2)C1 (stereo not shown) : > 10 µM

Briefly, CC50 at 144 h measured for O=C(NC1CC2(C1)CC(c1nc3cc(Cl)ccc3o1)C2)c1ccncc1 (stereo not shown) : > 100 µM
